Measured values drawn from paper PMC10397247 for this set.

# ASSAYED_TARGET: T1, APC2556-AA
# T1 chain: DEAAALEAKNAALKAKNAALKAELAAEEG
# RUN_DESCRIPTION: two-hybrid library CCmax;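 note: natural log of median RNA to DNA barcode read ratio; higher means stronger binding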
# TEST_CONTEXT: mean of both orientations
Overview of recorded interaction score for various binders
MEASURE: interaction score

> print(dat)
                                     binder  quantitative.readout
1  DELAAIEAEAAALEAEAAALEAEAAALEG [APC222-AA]                 -2.32
2  DKLAAIKAEAAALEAENAALEAEAAALEG [APC1242-AA]                 -1.73
3  DEAAALEAKNAALKAENAALEAKAAALKG [APC2543-AA]                 -1.67
4  DKLAAIKAKLAAIKAKLAAIKAKNAALKG [APC1115-AA]                 -1.69
5  DEAAALEAENAALEAKLAAEKAENAALEG [APC2474-AA]                 -1.49
6  DEAAALEAKAAALKAKLAAEKAKNAALKG [APC2375-AA]                 -1.42
7  DKLAAIKAKLAANKAELAANEAKLAAEKG [APC1987-AA]                 -1.78
8  DEAAALEAEAAALEAKNAALKAKLAAEKG [APC2257-AA]                 -1.99
9  DKLAAIKAKLAANKAKLAAIKAELAAEEG [APC1916-AA]                 -1.71
